- method_description: Pharmacokinetics in rats after single IV and PO administration (LC-MS/MS)
- Format: in vivo, male SD rats
- measurement_context: rat, in vivo; SD rats, IV 3 mg/kg; read-out: IV CL
readout: clearance
Report as: number unit

stdin: Give the measured clearance of CCN(C(=O)c1cc(F)ccc1N1CCN([C@@H]2CCN([C@H](CCCN(C)CCOC)C(C)C)C2)c2ncncc21)C(C)C .
stdout: 59.2 mL/min/kg

* * *

Measured IC50 of individual entries
- assay_system: Menin-G331R (Homo sapiens, UniProt O00255, G326R)
- Sequence (O00255 1-615 isoform O00255-1 G331R): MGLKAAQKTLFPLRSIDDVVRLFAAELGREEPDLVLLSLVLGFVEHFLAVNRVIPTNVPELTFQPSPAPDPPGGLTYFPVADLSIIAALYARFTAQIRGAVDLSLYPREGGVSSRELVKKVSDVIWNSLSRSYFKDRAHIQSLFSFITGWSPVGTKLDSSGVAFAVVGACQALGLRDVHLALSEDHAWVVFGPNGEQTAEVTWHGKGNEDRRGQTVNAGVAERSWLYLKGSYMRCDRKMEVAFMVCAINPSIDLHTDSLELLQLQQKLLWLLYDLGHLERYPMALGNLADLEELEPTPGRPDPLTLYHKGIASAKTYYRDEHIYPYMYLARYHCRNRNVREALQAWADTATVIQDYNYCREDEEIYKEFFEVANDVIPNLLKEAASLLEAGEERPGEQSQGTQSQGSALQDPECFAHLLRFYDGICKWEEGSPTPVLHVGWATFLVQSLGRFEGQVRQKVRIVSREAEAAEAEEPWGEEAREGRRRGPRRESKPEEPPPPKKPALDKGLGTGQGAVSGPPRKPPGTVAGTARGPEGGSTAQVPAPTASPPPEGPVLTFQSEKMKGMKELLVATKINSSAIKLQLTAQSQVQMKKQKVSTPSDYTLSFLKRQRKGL
- method_description: Fluorescence polarization assay of Menin binding to MLL peptide, G331R mutant
- measurement_context: FP, 8 nM Menin, 4 nM MLL peptide
Report as: number unit

structure_smiles_string | IC50
CCN(C(=O)c1cc(F)ccc1N1CCN([C@@H]2CCN([C@H](CCCN(C)CCOC)C(C)C)C2)c2ncncc21)C(C)C | 36.7 nM

Here is another molecule to look at.
stdin: Give the measured IC50 of CCN(C(=O)c1cc(F)ccc1Oc1cncnc1N1CC2(CCN(C[C@H]3CC[C@H](NS(=O)(=O)CC)CC3)CC2)C1)C(C)C .
stdout: 101 nM
